# System: Hs578T
# test_protocol: normalised response (% of control), CellTiter-Glo; higher = more viable cells (100 = DMSO, 0 = benzethonium chloride kill control)
# test_context: incubation time: 72 h
property_label: normalised response

1) CC(C)(C)c1cnc(CSc2cnc(NC(=O)C3CCNCC3)s2)o1 [SNS-032] (1 nM) | 97.6%
2) CC(=O)N(O)CCCCCNC(=O)CCC(=O)N(O)CCCCCNC(=O)CCC(=O)N(O)CCCCCN [Deferoxamine] (1 nM) | 100%
3) C[C@]12CC[C@@H]3c4ccc(OC(=O)N(CCCl)CCCl)cc4CC[C@H]3[C@@H]1CC[C@@H]2O [Estramustine] (1000 nM) | 95.9%
4) Cn1cc(C2=Nc3cc(NC(=O)C(N)C4CCCCC4)cc4c3C2=CNNC4=O)cn1 (stereo not drawn) (1 nM) | 94%
5) CC1=C2C[C@H]3[C@@H](CC=C4C[C@@H](O)CC[C@@]43C)[C@@H]2CC[C@]12O[C@@H]1C[C@H](C)CN[C@H]1[C@H]2C [Cyclopamine] (1 nM) | 103%
6) O=NN(CCCl)C(=O)NCCCl [Carmustine] (1000 nM) | 102%
7) C[C@]12CC[C@@H]3c4ccc(OC(=O)N(CCCl)CCCl)cc4CC[C@H]3[C@@H]1CC[C@@H]2O [Estramustine] (1 nM) | 95.5%
8) CC(=O)N(O)CCCCCNC(=O)CCC(=O)N(O)CCCCCNC(=O)CCC(=O)N(O)CCCCCN [Deferoxamine] (1000 nM) | 96.8%

====

# Test system: BT-549
# test_protocol: drug sensitivity score (DSS), CellTiter-Glo (DSS (AUC-based score)); higher = stronger drug effect (viability inhibition or cytotoxicity); extreme values may be limits of the assay
# test_context: incubation time: 72 h
property_label: drug sensitivity score

1. Oc1ncnc2[nH]ncc12 | 0
2. CC(=O)O[C@@]12CO[C@@H]1C[C@H](O)[C@@]1(C)C(=O)[C@H](O)C3=C(C)[C@@H](OC(=O)[C@H](O)[C@@H](NC(=O)OC(C)(C)C)c4ccccc4)C[C@@](O)([C@@H](OC(=O)c4ccccc4)[C@H]21)C3(C)C | 30.5
3. CC1=C2C[C@H]3[C@@H](CC=C4C[C@@H](O)CC[C@@]43C)[C@@H]2CC[C@]12O[C@@H]1C[C@H](C)CN[C@H]1[C@H]2C | 0
4. C[C@]1(O)C[C@@H](c2nc(-c3ccc4ccc(-c5ccccc5)nc4c3)c3c(N)nccn32)C1 | 0
5. O=C1CN2Cc3c(ccc(Cl)c3Cl)N=C2N1 [Anagrelide] | 0
6. Nc1ncn([C@@H]2O[C@H](CO)[C@@H](O)[C@H]2O)c(=O)n1 | 5.75

====

Overview of reported normalised viability across a group of compounds:
# Tested on: HCC1143
# test_protocol: normalised viability (% of control), CellTiter-Blue; higher = more viable cells (about 100 = DMSO control)
# test_context: 10 nM; incubation time: 72 h
property_label: normalised viability (%)

1. Cc1sc2c(c1C)C(c1ccc(Cl)cc1)=N[C@@H](CC(=O)OC(C)(C)C)c1nnc(C)n1-2 [(+)JQ1] | 91.1
2. Cn1cnc2c(F)c(Nc3ccc(Br)cc3Cl)c(C(=O)NOCCO)cc21 | 79.7
3. COc1cc(F)c(F)c(Nc2ccc(I)cc2F)c1NS(=O)(=O)C1(C[C@H](O)CO)CC1 | 117
4. C[C@]1(O)C[C@@H](c2nc(-c3ccc4ccc(-c5ccccc5)nc4c3)c3c(N)nccn32)C1 | 99.9
5. COc1cc2c(cc1O)CC[C@@H]1[C@@H]2CC[C@]2(C)[C@@H](O)CC[C@@H]12 | 92.4
